# test.target: WDR9(2) (Homo sapiens, UniProt Q9NSI6)
# Sequence (Q9NSI6 1313-1418 limits assumed): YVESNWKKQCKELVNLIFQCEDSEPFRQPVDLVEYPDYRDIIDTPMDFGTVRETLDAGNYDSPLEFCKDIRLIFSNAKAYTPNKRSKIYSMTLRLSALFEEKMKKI
# measurement.protocol: BROMOscan, WDR9(2)
# Source text: To further profile bivalent inhibitors, fluorescent polarization (FP) and phage-based, multiplexed bromodomain displacement assays (BROMOscan™, DiscoveRx) were utilized.

smiles.code	test.target	Kd / µM
COC(=O)C[C@@H]1N=C(c2ccc(Cl)cc2)c2c(sc(C(=O)NCCOCCNC(=O)C[C@@H]3N=C(c4ccc(Cl)cc4)c4c(sc(C)c4C)-n4c(C)nnc43)c2C)-n2c(C)nnc21	WDR9(2) (Homo sapiens, UniProt Q9NSI6)	9.9

---

# test.target: BRD4(1) (Homo sapiens)

molecule	IC50, nM
COC(=O)C[C@@H]1N=C(c2ccc(Cl)cc2)c2c(sc(C(=O)NCCOCCNC(=O)c3sc4c(c3C)C(c3ccc(Cl)cc3)=N[C@@H](CC(=O)OC)c3nnc(C)n3-4)c2C)-n2c(C)nnc21 [(2+2)-PEG1]	1.17

Where do the numbers come from? From patent US10913752B2.
